# Test system: NCI-H460 lung
# ASSAY DETAILS: NCI tumour cell line growth inhibition, 48 h
MEASURED PROPERTY: TGI

[
  {
    "COMPOUND": "COc1ccc(C2SCC(=O)N2NC(=O)c2ccncc2)cc1F (stereo unspecified)",
    "MEASURED PROPERTY": "TGI",
    "REPORTED VALUE": "> 100 µM"
  },
  {
    "COMPOUND": "Nc1nc2c(c(=O)[nH]1)C(c1ccccc1)CC(=O)N2 (stereo unspecified)",
    "MEASURED PROPERTY": "TGI",
    "REPORTED VALUE": "> 100 µM"
  },
  {
    "COMPOUND": "CCOc1ccc(N=Cc2ccc3cc(C)ccc3n2)cc1",
    "MEASURED PROPERTY": "TGI",
    "REPORTED VALUE": "> 100 µM"
  },
  {
    "COMPOUND": "CC(NO)/C(=N/O)c1ccco1 (stereo unspecified)",
    "MEASURED PROPERTY": "TGI",
    "REPORTED VALUE": "> 10 µM"
  },
  {
    "COMPOUND": "Nc1ccc2c(=O)cc(-c3cccs3)[nH]c2n1",
    "MEASURED PROPERTY": "TGI",
    "REPORTED VALUE": "> 100 µM"
  },
  {
    "COMPOUND": "COc1cc2nc(-c3cccs3)nc(N3CCN(c4ccccc4C(F)(F)F)CC3)c2cc1OC",
    "MEASURED PROPERTY": "TGI",
    "REPORTED VALUE": "> 100 µM"
  }
]

---

# System: SF-268 CNS
# ASSAY DETAILS: NCI tumour cell line growth inhibition, 48 h

[
  {
    "MOLECULE": "NC(=O)CCC(Nc1c2ccccc2nc2ccccc12)C(=O)O (stereo not drawn)",
    "TGI": "> 100 µM"
  },
  {
    "MOLECULE": "COc1ccc(P2(=S)Oc3ccccc3-c3ccccc3O2)cc1",
    "TGI": "> 100 µM"
  },
  {
    "MOLECULE": "CCN(CC)CCC(=O)c1ccc(C)cc1",
    "TGI": "> 100 µM"
  }
]

---

# Tested on: RXF 393 renal
# ASSAY DETAILS: NCI tumour cell line growth inhibition, 48 h
// TGI lookup, one value per entry

[
  {
    "COMPOUND": "CC(=O)[CH-]C(=O)c1ccccc1.CC(=O)[CH-]C(=O)c1ccccc1.CC(C)CCCC(C)[C@H]1CCC2[C@@H]3CC=C4C[C@@H]([O-])CC[C@]4(C)C3CC[C@@]21C.CC(C)CCCC(C)[C@H]1CCC2[C@@H]3CC=C4C[C@@H]([O-])CC[C@]4(C)C3CC[C@@]21C.[Ti+4] (stereo partly drawn)",
    "TGI": "> 100 µM"
  },
  {
    "COMPOUND": "NC(=O)CCC(Nc1c2ccccc2nc2ccccc12)C(=O)O (stereo not drawn)",
    "TGI": "> 100 µM"
  },
  {
    "COMPOUND": "CC(C)(C)CC(C)(C)c1cc2c(O)c(c1)Cc1cc(C(C)(C)CC(C)(C)C)cc(c1O)Cc1cc(C(C)(C)CC(C)(C)C)cc(c1O)Cc1cc(C(C)(C)CC(C)(C)C)cc(c1O)Cc1cc(C(C)(C)CC(C)(C)C)cc(c1O)C2",
    "TGI": "> 100 µM"
  }
]
